System: FLT3
condition: concentration: 1 μM, replicates: in singlicate; n = 1;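 note: KINOMEscan kinase panel screen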
readout-name: %Inh (%)

compound: [2H]C([2H])(c1cccc(C(F)(F)F)c1C)n1ccn2c(=O)nc(N3CCOCC3)cc12 [GSK2336394]
numeric-result: 12

compound: COc1ccc(Nc2nccc(N3CCC(NC(=O)Nc4cc(C)ccc4C)C3)n2)cc1 (stereo not shown) [GSK1379741]
numeric-result: 0

compound: NCC(NC(=O)c1cc(-c2cn[nH]c2)c(-c2ccnc3[nH]ccc23)s1)c1ccccc1.O=C(O)C(F)(F)F.O=C(O)C(F)(F)F (stereo not shown) [GSK1325775]
numeric-result: 69

compound: COc1ccc(CNC(=O)NC2CCN(c3ccnc(Nc4ccc(OC)cc4)n3)C2)cc1 (stereo not shown) [GSK1379727]
numeric-result: 7

====

molecules and their reported %Inh
System: ERN1
condition: concentration: 1 μM, replicates: in singlicate; n = 1
readout-name: %Inh (%)

smiles-representation: CNc1ncnc2[nH]ncc12
target-or-test-system: ERN1
units-symbol: %
numeric-result: 33

smiles-representation: CN(C(=O)c1ccc(-c2cc(-c3c[nH]nc3-c3ccccn3)ccn2)cc1)C1CCOCC1
target-or-test-system: ERN1
units-symbol: %
numeric-result: 2

smiles-representation: c1ccc(-c2n[nH]cc2-c2ccnc3ccccc23)nc1
target-or-test-system: ERN1
units-symbol: %
numeric-result: 0

smiles-representation: COCCNC(=O)c1ccc(-c2cc(C(=O)NC3CC3)cc(F)c2C)cc1
target-or-test-system: ERN1
units-symbol: %
numeric-result: 38

smiles-representation: O=C(c1ccc(-c2cc(-c3c[nH]nc3-c3ccccn3)ccn2)cc1)N1CCOCC1
target-or-test-system: ERN1
units-symbol: %
numeric-result: 54

smiles-representation: Cc1cn2c(=O)cc(N3CCOCC3)nc2n1Cc1cccc(Cl)c1Cl
target-or-test-system: ERN1
units-symbol: %
numeric-result: 0

====

System: MLK2
condition: concentration: 1 μM, replicates: in singlicate; n = 1
Reported %Inh values for a set of compounds

compound: Cc1ccc(C(=O)NCC(N)=O)cc1-n1c(C)cc(OCc2ccc(F)cc2F)c(Br)c1=O
%Inh [%]: 19
//
compound: Cl.Nc1ncnc2occ(-c3ccc(NC(=O)Nc4cc(C(F)(F)F)ccc4F)cc3)c12 [SB-707548]
%Inh [%]: 65
//
compound: Cc1cccc(-c2nc(Nc3ccc4ncsc4c3)c3ccccc3n2)n1 [GW867588]
%Inh [%]: 20
//
compound: O=C(NCCNc1ccnc(Nc2ccc(F)cc2)n1)c1cc2ccccc2s1 [GSK1379874]
%Inh [%]: 0
//
compound: CCc1nc(-c2cccc(C)c2)c(-c2ccnc(NCc3ccccc3)c2)s1
%Inh [%]: 0
//
compound: CN(C1=C(c2ccccc2)C(=O)NC1=O)c1ccccc1 [SB-334860]
%Inh [%]: 0
//
compound: NCC(NC(=O)c1cc(-c2cn[nH]c2)c(-c2ccnc3[nH]ccc23)s1)c1ccccc1.O=C(O)C(F)(F)F.O=C(O)C(F)(F)F (stereo not drawn) [GSK1325775]
%Inh [%]: 0
//
compound: O=C(Nc1cccc(-c2nn3ncccc3c2-c2ccnc(Nc3cccc(C(F)(F)F)c3)n2)c1)c1c(F)cccc1F [GSK299495]
%Inh [%]: 0
//
compound: CCCCCc1nc2c(N)ncnc2n1CCCCC [SKF-97255]
%Inh [%]: 50
//
compound: [2H]C([2H])(c1cccc(C(F)(F)F)c1C)n1ccn2c(=O)nc(N3CCOCC3)cc12 [GSK2336394]
%Inh [%]: 0
//
compound: CCc1ccnc(/C=C/c2n[nH]c3cc(Sc4ccccc4C(=O)NC)ccc23)c1
%Inh [%]: 4
//
compound: O=C(NCCCN1CCOCC1)c1cccc(Nc2nccc(Nc3ccc(Oc4ccccc4)cc3)n2)c1 [GW663929]
%Inh [%]: 0
//
compound: O=c1cc(N2CCOCC2)nc2n(Cc3cccc(F)c3)ccn12 [GSK2297430]
%Inh [%]: 0
//
compound: Cc1cccc(Cn2ccn3c(=O)cc(N4CCOCC4)nc23)c1 [GSK2297542]
%Inh [%]: 0
//
compound: Cc1nnc(-c2ccc3ncc(-c4ccc(S(C)=O)cc4)n3c2)o1 (stereo not drawn)
%Inh [%]: 0
//
compound: COc1cc2c(cc1OC[C@@H](O)CO)ncc1c3ccc(C#N)cc3[nH]c21
%Inh [%]: 0
//
compound: CSc1ccc(-c2cc3ncnc(SCC(=O)O)c3s2)cc1
%Inh [%]: 24
//
compound: CC(C)Oc1ccc2c(-c3ccnc(Nc4ccc(N5CCN(C)CC5)cc4)n3)cnn2n1 [GW696155]
%Inh [%]: 0
//
compound: Cc1ccc(NC(=O)c2ccnc(N3CCN(C)CC3)c2)cc1-c1ccc(C(=O)NCC2CC2)cc1 [GW775604]
%Inh [%]: 21
//
compound: O=C(NCCNc1ccnc(Nc2ccc(F)cc2)n1)Nc1ccccc1F [GSK1379880]
%Inh [%]: 0
//
compound: Cc1c(Cn2c(C)nn3c(=O)cc(N4CCOC(C)C4)nc23)cccc1C(F)(F)F (stereo not drawn) [GSK2344444]
%Inh [%]: 0
//
compound: CC(C)(C)n1cnc2c(N)ncnc21 [SKF-97359]
%Inh [%]: 0
//
compound: Cc1nnc(-c2ccc(C)c(-c3ccc(C(=O)Nc4ccc(NS(C)(=O)=O)cc4)cc3)c2)o1 [GW702865]
%Inh [%]: 0
//
compound: O=c1cc(N2CCOCC2)nc2n(Cc3cccc(Cl)c3Cl)c(C3CC3)nn12 [GSK2358994]
%Inh [%]: 0
//
compound: N#Cc1c(N2CCOCC2)sc(-c2ccn[nH]2)c1-c1ccc(Cl)cc1
%Inh [%]: 5
//
compound: Cc1cn2c(=O)cc(N3CCOCC3)nc2n1Cc1cccc(Cl)c1Cl [GSK2334006]
%Inh [%]: 2
//
compound: COc1ccc(Nc2nccc(N3CCC(NC(=O)Nc4cc(C)ccc4C)C3)n2)cc1 (stereo not drawn) [GSK1379741]
%Inh [%]: 0
//
compound: Cc1c2ccc(N(C)c3ccnc(Nc4cccc(S(N)(=O)=O)c4)n3)cc2nn1Cc1ccccc1.Cl.Cl [GW787226]
%Inh [%]: 50
//
compound: CC(=O)Nc1ccc(COc2ccc(Nc3ccnc4cc(-c5ccccn5)ccc34)cc2)cc1.Cl [GW440148]
%Inh [%]: 0
//
compound: C[C@@H](Oc1cc(-n2cnc3ccc(NC(=O)NC(C)(C)C)cc32)sc1C(N)=O)c1ccccc1Cl [GSK346294]
%Inh [%]: 27
//
compound: Fc1ccc(-c2nn3c(OCC(F)(F)F)cccc3c2-c2ccncc2)cc1 [GW514784]
%Inh [%]: 0
//
compound: Cn1cc(-c2ccc3c(c2)CCN3C(=O)Cc2ccccc2Cl)c2c(N)ncnc21 [GSK2608885]
%Inh [%]: 0
//
compound: Cc1nnc(-c2ccc3occ(-c4ccc(C(C)O)cc4)c3c2)o1 (stereo not drawn)
%Inh [%]: 14
//
compound: O=c1cc(N2CCOCC2)nc2n(Cc3cccc(C(F)(F)F)c3)ccn12 [GSK2297543]
%Inh [%]: 14
//
compound: Fc1ccc(-c2ncn(CCCN3CCOCC3)c2-c2ccccn2)cc1 [SB-211742]
%Inh [%]: 27
//
compound: Cc1cccc(-c2nc(-c3ccc(S(C)(=O)=O)cc3)sc2-c2ccncc2)c1
%Inh [%]: 33
